Tested on: Liver microsomes
Assay: Metabolic stability in rat liver microsomes assessed as metabolic rate per mg of protein
Assay type: ADME, Microsome
Observation Type: Stability
Report the figure along with its unit, number first.

Test system Liver microsomes; read-out Stability; what value for Cc1ccc(C(=O)Nc2ccon2)cc1Nc1ncnc2c1cnn2-c1ccccc1 ?
0.005 nmol/min/mg

----------
Assay: Oral bioavailability in mouse at 10 mg/kg
Assay type: ADME, organism-based
Conditions: in vivo
Observation Type: bioavailability (%)
Give just the numeric value; % need not be written.

What does the data say about its bioavailability? Entry: Cc1ccc(C(=O)Nc2ccon2)cc1Nc1ncnc2c1cnn2-c1ccccc1
60
